For each entry below, report its selectivity ratio value.
# System: Cryptosporidium hominis TS-DHFR versus human TS (thymidylate synthase)
# method-description: Selectivity ratio of IC50 for inhibition of recombinant Cryptosporidium hominis TS-DHFR expresssed in Escherichia coli PA414 to IC50 for inhibition of recombinant human His6-tagged TS
# Format: toxicity
# setup-conditions: Cryptosporidium hominis and human; read-out: Ratio IC50
Lab note: write the figure by itself, no unit.

Report measured selectivity ratio; entry is NC(=O)c1ccc(C(=O)O)c(NC(=O)c2ccc(Cc3c[nH]c4nc(N)[nH]c(=O)c34)cc2)c1
20

Report measured selectivity ratio; entry is Nc1nc2[nH]cc(Cc3ccc(C(=O)Nc4cc(CO)ccc4C(=O)O)cc3)c2c(=O)[nH]1
65
